Biological target: anti-cotinine antibody (SEQ ID NO: 11/12, rabbit variable region with human IgG1 Fc DE mutation)
Experiment: SPR binding of anti-cotinine antibody to ARM compounds, Biacore T200, 37° C. (Example 202)
Settings: SPR Biacore T200, 37° C., pH 7.4, antibody SEQ ID NO: 11/12 captured on protein A; Kd in molar
Quick list: pKd of Antibody for ARM Compound of Formula (I) per entry.
Observation type: pKd of Antibody for ARM Compound of Formula (I)

molecular_string=CC(C)N(C)[C@@H]1CC[C@H](N2CC[C@H](Nc3ncnc4ccc(C(F)(F)F)cc34)C2=O)[C@H](NC(=O)CCOCCNC(=O)[C@H]2CC[C@@H](NC(=O)COCCNC(=O)[C@H]3CC(=O)N(C)[C@@H]3c3cccnc3)CC2)C1 value_observed=9.161
molecular_string=CC(C)N(C)[C@@H]1CC[C@H](N2CC[C@H](Nc3ncnc4ccc(C(F)(F)F)cc34)C2=O)[C@H](NC(=O)CCOCCNC(=O)CCOCCNC(=O)COCCNC(=O)[C@H]2CC(=O)N(C)[C@@H]2c2cccnc2)C1 value_observed=9.0705
molecular_string=CC(C)N(C)[C@@H]1CC[C@H](N2CC[C@H](Nc3ncnc4ccc(C(F)(F)F)cc34)C2=O)[C@H](NC(=O)CCCC(=O)NCCCOCCCNC(=O)CCCNC(=O)[C@H]2CC(=O)N(C)[C@@H]2c2cccnc2)C1 value_observed=9.1415
molecular_string=CC(C)N(C)[C@@H]1CC[C@H](N2CC[C@H](Nc3ncnc4ccc(C(F)(F)F)cc34)C2=O)[C@H](NC(=O)[C@H]2CC[C@H](CNC(=O)CCOCCOCCOCCNC(=O)[C@H]3CC(=O)N(C)[C@@H]3c3cccnc3)CC2)C1 value_observed=9.1825
molecular_string=CC(C)N(C)[C@@H]1CC[C@H](N2CC[C@H](Nc3ncnc4ccc(C(F)(F)F)cc34)C2=O)[C@H](NC(=O)COCCNC(=O)CCOCCNC(=O)CCOCCNC(=O)[C@H]2CC(=O)N(C)[C@@H]2c2cccnc2)C1 value_observed=9.051
molecular_string=CC(C)N(C)[C@@H]1CC[C@H](N2CC[C@H](Nc3ncnc4ccc(C(F)(F)F)cc34)C2=O)[C@H](NC(=O)[C@H]2CC[C@@H](NC(=O)CCOCCOCCNC(=O)CCNC(=O)[C@H]3CC(=O)N(C)[C@@H]3c3cccnc3)CC2)C1 value_observed=9.287
molecular_string=CC(C)N(C)[C@@H]1CC[C@H](N2CC[C@H](Nc3ncnc4ccc(C(F)(F)F)cc34)C2=O)[C@H](NC(=O)CCCC(=O)N[C@H]2CC[C@@H](CNC(=O)CCOCCNC(=O)[C@H]3CC(=O)N(C)[C@@H]3c3cccnc3)CC2)C1 value_observed=9.24
molecular_string=CC(C)N(C)[C@@H]1CC[C@H](N2CC[C@H](Nc3ncnc4ccc(C(F)(F)F)cc34)C2=O)[C@H](NC(=O)COCCNC(=O)COCCOCCNC(=O)CCNC(=O)[C@H]2CC(=O)N(C)[C@@H]2c2cccnc2)C1 value_observed=9.275
molecular_string=CN1C(=O)C[C@H](C(=O)NCCOCCOCCOCCC(=O)N[C@H]2CC[C@@H](C(=O)N[C@@H]3C[C@H](NC(C)(C)C)CC[C@@H]3N3CC[C@H](Nc4ncnc5ccc(C(F)(F)F)cc45)C3=O)CC2)[C@H]1c1cccnc1 value_observed=9.2166
